- Test system: MCF7
- assayComment: Cytotoxicity against Pgp deficient human MCF7 cells after 72 hrs by sulforhodamine B test
- Format: functional, cell-based
- conditionInfo: MCF7, 72 h
pIC50: −log10 of the molar value.

# smilesEntry, pIC50
rows = [
    ("CCC(=O)O[C@H]1C(=O)[C@@]2(C)[C@H]([C@H](OC(=O)c3ccccc3)[C@]3(O)C[C@H](OC(=O)[C@H](O)[C@H](CC(C)C)NC(=O)C4CCCC4)C(C)=C1C3(C)C)[C@]1(OC(C)=O)CO[C@@H]1C[C@@H]2O", 8.64),
    ("CCC(=O)O[C@H]1C(=O)[C@@]2(C)[C@H]([C@H](OC(=O)c3cccc(OC)c3)[C@]3(O)C[C@H](OC(=O)[C@H](O)[C@H](C=C(C)C)NC(=O)OC4CCCCC4)C(C)=C1C3(C)C)[C@]1(OC(C)=O)CO[C@@H]1C[C@@H]2O", 8.84),
    ("CCC(=O)O[C@H]1C(=O)[C@@]2(C)[C@H]([C@H](OC(=O)c3ccccc3)[C@]3(O)C[C@H](OC(=O)[C@H](O)[C@H](C=C(C)C)NC(=O)C4CCCCC4)C(C)=C1C3(C)C)[C@]1(OC(C)=O)CO[C@@H]1C[C@@H]2O", 9.00),
    ("CCC(=O)O[C@H]1C(=O)[C@@]2(C)[C@H]([C@H](OC(=O)c3ccccc3)[C@]3(O)C[C@H](OC(=O)[C@H](O)[C@H](CC(C)C)NC(=O)OC4CCCC4)C(C)=C1C3(C)C)[C@]1(OC(C)=O)CO[C@@H]1C[C@@H]2O", 8.89),
]

---

Some compounds, each annotated with its measured IC50.
- Test system: MCF7
- assayComment: Cytotoxicity against Pgp deficient human MCF7 cells after 72 hrs by sulforhodamine B test
- Assay type: functional, cell-based
- conditionInfo: MCF7, 72 h
assayEndpoint: IC50 (nM)

# smilesEntry, dataValue
records = [
    ("CCC(=O)O[C@H]1C(=O)[C@@]2(C)[C@H]([C@H](OC(=O)c3cccc(OC)c3)[C@]3(O)C[C@H](OC(=O)[C@H](O)[C@H](C=C(C)C)NC(=O)C4CCCC4)C(C)=C1C3(C)C)[C@]1(OC(C)=O)CO[C@@H]1C[C@@H]2O", 0.3),
    ("CCC(=O)O[C@H]1C(=O)[C@@]2(C)[C@H]([C@H](OC(=O)c3ccccc3)[C@]3(O)C[C@H](OC(=O)[C@H](O)[C@H](C=C(C)C)NC(=O)C4=CCCCC4)C(C)=C1C3(C)C)[C@]1(OC(C)=O)CO[C@@H]1C[C@@H]2O", 0.3),
    ("CC(=O)O[C@H]1C(=O)[C@@]2(C)[C@H]([C@H](OC(=O)c3cccc(C)c3)[C@]3(O)C[C@H](OC(=O)[C@H](O)[C@H](C=C(C)C)NC(=O)OC(C)(C)C)C(C)=C1C3(C)C)[C@]1(OC(C)=O)CO[C@@H]1C[C@@H]2O", 0.8),
    ("C=CC[C@H](NC(=O)OC(C)(C)C)[C@@H](O)C(=O)O[C@H]1C[C@@]2(O)[C@@H](OC(=O)c3cccc(OC)c3)[C@@H]3[C@]4(OC(C)=O)CO[C@@H]4C[C@H](O)[C@@]3(C)C(=O)[C@H](OC(=O)CC)C(=C1C)C2(C)C", 0.8),
]

---

Some molecules, each annotated with its measured pIC50.
- assayComment: Cytotoxicity against Pgp deficient human LCC6 cells after 72 hrs by sulforhodamine B test
- Assay type: functional, cell-based
- conditionInfo: C6, 72 h
pIC50: −log10 of the molar value.

# smilesEntry, pIC50
records = [
    ("COc1ccc(C(=O)O[C@H]2C(=O)[C@@]3(C)[C@H]([C@H](OC(=O)c4ccccc4)[C@]4(O)C[C@H](OC(=O)[C@H](O)[C@H](C=C(C)C)NC(=O)OC(C)(C)C)C(C)=C2C4(C)C)[C@]2(OC(C)=O)CO[C@@H]2C[C@@H]3O)cc1", 8.42),
    ("CCC(=O)O[C@H]1C(=O)[C@@]2(C)[C@H]([C@H](OC(=O)c3cccc(OC)c3)[C@]3(O)C[C@H](OC(=O)[C@H](O)[C@H](C=C(C)C)NC(=O)OC(C)(C)C)C(C)=C1C3(C)C)[C@]1(OC(C)=O)CO[C@@H]1C[C@@H]2O", 9.00),
]

---

- assayComment: Cytotoxicity against Pgp deficient human LCC6 cells after 72 hrs by sulforhodamine B test
- Assay type: functional, cell-based
- conditionInfo: C6, 72 h
pIC50: −log10 of the molar value.
Some compounds, each annotated with its measured pIC50.

# smilesEntry, pIC50
rows = [
    ("COc1cccc(C(=O)O[C@H]2[C@@H]3[C@]4(OC(C)=O)CO[C@@H]4C[C@H](O)[C@@]3(C)C(=O)[C@H](OC(=O)c3ccccc3OC)C3=C(C)[C@@H](OC(=O)[C@H](O)[C@H](C=C(C)C)NC(=O)OC(C)(C)C)C[C@]2(O)C3(C)C)c1", 9.40),
    ("CCC(=O)O[C@H]1C(=O)[C@@]2(C)[C@H]([C@H](OC(=O)c3ccccc3)[C@]3(O)C[C@H](OC(=O)[C@H](O)[C@H](CC(C)C)NC(=O)C4CCCCC4)C(C)=C1C3(C)C)[C@]1(OC(C)=O)CO[C@@H]1C[C@@H]2O", 8.24),
]

---

- assayComment: Cytotoxicity against Pgp deficient human LCC6 cells after 72 hrs by sulforhodamine B test
- Assay type: functional, cell-based
- conditionInfo: C6, 72 h
assayEndpoint: IC50 (nM)

# smilesEntry, dataValue
measured = [
    ("CCC(=O)O[C@H]1C(=O)[C@@]2(C)[C@H]([C@H](OC(=O)c3cccc(OC)c3)[C@]3(O)C[C@H](OC(=O)[C@H](O)[C@H](C=C(C)C)NC(=O)C4CCCC4)C(C)=C1C3(C)C)[C@]1(OC(C)=O)CO[C@@H]1C[C@@H]2O", 1.1),
    ("COc1ccc(CCC(=O)O[C@H]2C(=O)[C@@]3(C)[C@H]([C@H](OC(=O)c4ccccc4)[C@]4(O)C[C@H](OC(=O)[C@H](O)[C@H](C=C(C)C)NC(=O)OC(C)(C)C)C(C)=C2C4(C)C)[C@]2(OC(C)=O)CO[C@@H]2C[C@@H]3O)cc1", 1.7),
    ("C=Cc1cccc(C(=O)O[C@H]2[C@@H]3[C@]4(OC(C)=O)CO[C@@H]4C[C@H](O)[C@@]3(C)C(=O)[C@H](OC(=O)CC)C3=C(C)[C@@H](OC(=O)[C@H](O)[C@H](C=C(C)C)NC(=O)OC(C)(C)C)C[C@]2(O)C3(C)C)c1", 2.9),
    ("CCC(=O)O[C@H]1C(=O)[C@@]2(C)[C@H]([C@H](OC(=O)c3ccccc3)[C@]3(O)C[C@H](OC(=O)[C@H](O)[C@H](C=C(C)C)NC(=O)C4=CCCC4)C(C)=C1C3(C)C)[C@]1(OC(C)=O)CO[C@@H]1C[C@@H]2O", 1.2),
]

---

- assayComment: Cytotoxicity against Pgp deficient human LCC6 cells after 72 hrs by sulforhodamine B test
- Type: functional, cell-based
- conditionInfo: C6, 72 h
pIC50: −log10 of the molar value.
Some compounds, each annotated with its measured pIC50.

# smilesEntry, pIC50
data = [
    ("CCC(=O)O[C@H]1C(=O)[C@@]2(C)[C@H]([C@H](OC(=O)c3ccccc3)[C@]3(O)C[C@H](OC(=O)[C@H](O)[C@H](CC(C)C)NC(=O)OC4CCCCC4)C(C)=C1C3(C)C)[C@]1(OC(C)=O)CO[C@@H]1C[C@@H]2O", 8.32),
    ("CCC(=O)O[C@H]1C(=O)[C@@]2(C)[C@H]([C@H](OC(=O)c3cccc(F)c3)[C@]3(O)C[C@H](OC(=O)[C@H](O)[C@H](C=C(C)C)NC(=O)OC(C)(C)C)C(C)=C1C3(C)C)[C@]1(OC(C)=O)CO[C@@H]1C[C@@H]2O", 9.30),
]

---

- Test system: MCF7
- assayComment: Cytotoxicity against Pgp deficient human MCF7 cells after 72 hrs by sulforhodamine B test
- Type: functional, cell-based
- conditionInfo: MCF7, 72 h

# smilesEntry, IC50 (nM)
records = [
    ("CCC(=O)O[C@H]1C(=O)[C@@]2(C)[C@H]([C@H](OC(=O)c3cccc(OC)c3)[C@]3(O)C[C@H](OC(=O)[C@H](O)[C@@H](NC(=O)OC(C)(C)C)[C@H]4CC4(C)C)C(C)=C1C3(C)C)[C@]1(OC(C)=O)CO[C@@H]1C[C@@H]2O", 0.6),
    ("CCC(=O)O[C@H]1C(=O)[C@@]2(C)[C@H]([C@H](OC(=O)c3cccc(OC)c3)[C@]3(O)C[C@H](OC(=O)[C@H](O)[C@H](CC(C)C)NC(=O)C4CCCCC4)C(C)=C1C3(C)C)[C@]1(OC(C)=O)CO[C@@H]1C[C@@H]2O", 0.7),
    ("CCC(=O)O[C@H]1C(=O)[C@@]2(C)[C@H]([C@H](OC(=O)c3cccc(N=[N+]=[N-])c3)[C@]3(O)C[C@H](OC(=O)[C@H](O)[C@H](CC(C)C)NC(=O)OC(C)(C)C)C(C)=C1C3(C)C)[C@]1(OC(C)=O)CO[C@@H]1C[C@@H]2O", 1),
    ("COc1cccc(C(=O)O[C@H]2[C@@H]3[C@]4(OC(C)=O)CO[C@@H]4C[C@H](O)[C@@]3(C)C(=O)[C@H](OC(=O)c3ccccc3OC)C3=C(C)[C@@H](OC(=O)[C@H](O)[C@H](C=C(C)C)NC(=O)OC(C)(C)C)C[C@]2(O)C3(C)C)c1", 1.1),
]
